Hello, the source for this data is ChEMBL document CHEMBL4613220, in case you need it.

Biological target: 5-demethoxyubiquinone hydroxylase, mitochondrial (Homo sapiens)
Sequence (whole entry): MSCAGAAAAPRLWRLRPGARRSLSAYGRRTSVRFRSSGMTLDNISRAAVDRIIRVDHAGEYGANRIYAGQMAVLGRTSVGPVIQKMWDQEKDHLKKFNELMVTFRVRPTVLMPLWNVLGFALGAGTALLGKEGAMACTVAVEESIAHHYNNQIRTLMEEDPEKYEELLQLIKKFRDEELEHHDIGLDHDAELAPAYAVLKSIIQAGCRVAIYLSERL
Assay: Inhibition of COQ7 in human HeLa cells assessed as DMQ10 level per well at 10 uM after 2 days by HPLC analysis relative to control
Assay type: cell-based
Set-up: scale not given: the % may be the effect or the level left
Below, each entry is listed with its recorded Activity.

entry smiles | Activity, %
CS(=O)(=O)c1ccc(-n2nc(-c3ccccc3)cc2O)nc1 | 11
Oc1cc(C2CCCCC2)nn1-c1ccccn1 | 20.7
COc1ccc(-n2nc(-c3ccccc3)cc2O)nc1 | 0
Oc1cc(-c2ccccc2)nn1-c1ccc(Cl)cn1 | 52
Oc1cc(C2CCCC2)nn1-c1ccccn1 | 32.4
Oc1cc(-c2ccccc2)nn1-c1cccnc1 | 0
Oc1cc(-c2ccccc2)nn1-c1ccc(C(F)(F)F)cn1 | 49.5
Oc1cc(CCc2ccccc2)nn1-c1ccccn1 | 51.4
Oc1cc(-c2ccccc2)nn1-c1ccccc1 | 0
Clc1cc(-c2ccccc2)nn1-c1ccccn1 | 0
Cc1ccc(-n2nc(-c3ccccc3)cc2O)nc1 | 32.2
Oc1cc(C2CCC2)nn1-c1ccccn1 | 0
Oc1cc(-c2ccccc2)nn1-c1cc(Cl)ccn1 | 0
Oc1cc(CC2CCCCC2)nn1-c1ccccn1 | 42.9
Oc1cc(-c2ccccc2)nn1-c1ccccn1 | 7.1

---

Overview of reported GI50 at 96 h across a group of compounds:
Assay: Cytotoxicity against human WI38 cells assessed as growth inhibition after 4 days by cell-titer-Glo assay
Assay type: cell-based, WI-38
Conditions: WI-38 cells
attribute measured: GI50 at 96 h (µM)

entry smiles | qualifying sign | numeric readout
Oc1cc(CC2CCCCC2)nn1-c1ccccn1 | = | 17.5
Oc1cc(-c2ccccc2)nn1-c1cc(Cl)ccn1 | > | 30
Oc1cc(-c2ccccc2)nn1-c1ccc(F)cn1 | = | 28.9
Nc1ccc(-n2nc(-c3ccccc3)cc2O)nc1 | > | 30
Oc1cc(C2CCCCC2)nn1-c1ccccn1 | = | 9.1
Oc1cc(CCc2ccccc2)nn1-c1ccccn1 | = | 9.6
Oc1cc(-c2ccccc2)nn1-c1ccccn1 | = | 20.8
